Source of measurements: patent US8796246B2

# Test system: human acute myelogenous leukemia cell line HL-60
# RUN_DESCRIPTION: Ability to induce differentiation of HL-60 cells (oxygen radical production after phorbol ester, WST-1)
# Format: cell-based
# SETUP_CONDITIONS: 72 hours incubation, then WST-1 and phorbol 12,13-didecanoate for 4 hours, absorbance at 450 nm
pEC50: −log10 of the molar value.
QUANTITY: pEC50

[[record]]
compound = "CCC(O)(C=CC(=O)OC(C)C1CCC2C(=CC=C3CC(O)C(C)C(O)C3)CCCC21C)CC (centres unmarked)"
target_under_test = "human acute myelogenous leukemia cell line HL-60"
val = 9.54


[1] C=C1C(=CC=C2CCCC3(C)C2CCC3C(C)OC(=O)CCC(C)(O)C(F)(F)F)CC(O)CC1O (single isomer, unassigned)
[2] CC(OC(=O)CCC(C)(C)O)C1=CCC2C(=CC=C3CC(O)C(C)C(O)C3)CCCC12C (centres unmarked)
[3] C=C1C(=CC=C2CCCC3(C)C(C(C)OC(=O)CCC(C)(C)O)=CCC23)CC(O)CC1O (centres unmarked)
[4] C=C1C(=CC=C2CCCC3(C)C2CCC3C(C)OC(=O)CN(C)CC(C)(C)O)CC(O)CC1O (centres unmarked)
Q: Order the items by recorded pEC50; the first position goes to the largest value. // ordering of labels required in reply
A: 2, 1, 3, 4

[I] C=C1C(=CC=C2CCCC3(C)C2CCC3C(C)OC(=O)CC(=O)C(O)(CC)CC)CC(O)CC1O (centres unmarked)
[II] C=C1C(=CC=C2CCCC3(C)C2CCC3C(C)OC(=O)CC(=O)C(C)(C)O)CC(O)CC1O (centres unmarked)
Q: Between the two listed entries I and II , which has its pEC50 at the higher number? To answer, give the label that identifies your chosen option.
A: I
(I: 8.77, II: 8.39)

---

# Test system: human acute myelogenous leukemia cell line HL-60
# RUN_DESCRIPTION: Ability to induce differentiation of HL-60 cells (oxygen radical production after phorbol ester, WST-1)
# Format: cell-based
# SETUP_CONDITIONS: Homo sapiens, 72 hours incubation, then WST-1 and phorbol 12,13-didecanoate for 4 hours, absorbance at 450 nm
QUANTITY: pEC50
Please treat pEC50 as minus the base-10 logarithm of the molar concentration.

Q: Any idea what pEC50 was measured for C=C1/C(=C\C=C2/CCC[C@]3(C)[C@@H]([C@H](C)OCCC(C)(C)O)CC[C@@H]23)C[C@@H](O)C[C@@H]1O [Maxacalcitol, reference compound] ?
A: 8.27

---

# RUN_DESCRIPTION: Action to increase the urinary excretion of calcium (1), percutaneous administration
# Type: in vivo, SD male rats
# SETUP_CONDITIONS: percutaneous 10 μg/200 μL/kg/day once a day for 4 days; accumulated excretion 0 to 96 hours
QUANTITY: Calcium in Urine within 96 hours (mg)

// below: answered molecules
[[record]]
molecule = "CC(OC(=O)CCC(C)(O)C(F)(F)F)C1=CCC2C(=CC=C3CC(O)CC(O)C3)CCCC12C (stereo not shown) [Compound of Example 47]"
quantity = "Calcium in Urine within 96 hours"
val = 3.7

[[record]]
molecule = "CC(OC(=O)CCC(C)(O)C(F)(F)F)C1CCC2C(=CC=C3CC(O)CC(O)C3)CCCC21C (stereo not shown) [Compound of Example 43]"
quantity = "Calcium in Urine within 96 hours"
val = 4.6

[[record]]
molecule = "C=C1/C(=C\\C=C2/CCC[C@]3(C)C([C@H](C)OC(=O)CCC(C)(O)C(F)(F)F)=CC[C@@H]23)C[C@@H](O)C[C@@H]1O (single isomer, unassigned) [Compound of Example 70]"
quantity = "Calcium in Urine within 96 hours"
val = 3.7


[I] C=C1[C@H](O)CC(=C/C=C2\CCC[C@]3(C)C([C@H](C)OC(=O)CC[C@](C)(O)C(F)(F)F)=CC[C@@H]23)C[C@H]1O [Compound of Example 55]
[II] C=C1/C(=C\C=C2/CCC[C@]3(C)[C@@H]([C@H](C)OCCC(C)(C)O)CC[C@@H]23)C[C@@H](O)C[C@@H]1O [Maxacalcitol, reference compound]
Q: Between the two listed entries I and II , which has its Calcium in Urine within 96 hours at the higher number? To answer, give the label that identifies your chosen option.
A: II
(II: 13.9 mg, I: 4.8 mg)

---

# RUN_DESCRIPTION: Action to increase the urinary excretion of calcium (1), percutaneous administration
# Format: in vivo, SD male rats
# SETUP_CONDITIONS: percutaneous 10 μg/200 μL/kg/day once a day for 4 days; accumulated excretion 0 to 48 hours
QUANTITY: Calcium in Urine within 48 hours (mg)

// below: answered molecules
[[record]]
molecule = "CC(OC(=O)CCC(C)(O)C(F)(F)F)C1=CCC2C(=CC=C3CC(O)CC(O)C3)CCCC12C (stereo not shown) [Compound of Example 47]"
quantity = "Calcium in Urine within 48 hours"
unit_string = "mg"
val = 1.8

[[record]]
molecule = "C=C1/C(=C\\C=C2/CCC[C@]3(C)C([C@H](C)OC(=O)CCC(C)(O)C(F)(F)F)=CC[C@@H]23)C[C@@H](O)C[C@@H]1O (single isomer, unassigned) [Compound of Example 70]"
quantity = "Calcium in Urine within 48 hours"
unit_string = "mg"
val = 1.9

[[record]]
molecule = "C=C1[C@H](O)CC(=C/C=C2\\CCC[C@]3(C)C([C@H](C)OC(=O)CCC(C)(C)O)=CC[C@@H]23)C[C@H]1O [Compound of Example 48]"
quantity = "Calcium in Urine within 48 hours"
unit_string = "mg"
val = 1.9

[[record]]
molecule = "CC(OC(=O)CCC(C)(O)C(F)(F)F)C1CCC2C(=CC=C3CC(O)CC(O)C3)CCCC21C (stereo not shown) [Compound of Example 43]"
quantity = "Calcium in Urine within 48 hours"
unit_string = "mg"
val = 1.9


[I] C=C1[C@H](O)CC(=C/C=C2\CCC[C@]3(C)C([C@H](C)OC(=O)CC[C@](C)(O)C(F)(F)F)=CC[C@@H]23)C[C@H]1O [Compound of Example 55]
[II] C=C1/C(=C\C=C2/CCC[C@]3(C)[C@@H]([C@H](C)OC(=O)CCC(C)(C)O)CC[C@@H]23)C[C@@H](O)C[C@@H]1O [Compound of Example 1]
[III] C=C1/C(=C\C=C2/CCC[C@]3(C)[C@@H]([C@H](C)OCCC(C)(C)O)CC[C@@H]23)C[C@@H](O)C[C@@H]1O [Maxacalcitol, reference compound]
Q: Order the items by recorded Calcium in Urine within 48 hours; the first position goes to the largest value. // ordering of labels required in reply
A: III, I, II

---

# RUN_DESCRIPTION: Metabolic rate in human liver microsome
# Assay type: in vitro ADME
# SETUP_CONDITIONS: pooled human liver microsome 1 mg/mL protein, NADPH-regenerating system, 37° C., 2-60 minutes, HPLC
QUANTITY: Metabolic Rate (pmol/min/mg)

// below: answered molecules
[[record]]
molecule = "C=C1C(=CC=C2CCCC3(C)C(C(C)OC(=O)CCC(C)(O)C(F)(F)F)=CCC23)CC(O)CC1O (single isomer, unassigned)"
quantity = "Metabolic Rate"
val = 40

[[record]]
molecule = "C=C1C(O)CC(=CC=C2CCCC3(C)C2CCC3C(C)OC(=O)CCC(C)(C)O)CC1O (stereo not drawn)"
quantity = "Metabolic Rate"
val = 46

[[record]]
molecule = "CC(OC(=O)CCC(C)(C)O)C1=CCC2C(=CC=C3CC(O)C(C)C(O)C3)CCCC12C (stereo not drawn)"
quantity = "Metabolic Rate"
val = 24


[P] C=C1C(=CC=C2CCCC3(C)C2CCC3C(C)OC(=O)C=CC(O)(CC)CC)CC(O)CC1O (stereo not drawn)
[Q] C=C1C(O)CC(=CC=C2CCCC3(C)C2CCC3C(C)OC(=O)CCC(C)(O)C(F)(F)F)CC1O (stereo not drawn)
[R] CCC(O)(C=CC(=O)OC(C)C1CCC2C(=CC=C3CC(O)C(C)C(O)C3)CCCC21C)CC (stereo not drawn)
Q: Write the entries in order, lowest recorded Metabolic Rate first. // ordering of labels required in reply
A: R, P, Q
(R: 29 pmol/min/mg, P: 58 pmol/min/mg, Q: 95 pmol/min/mg)

[A] CC(OC(=O)CCC(C)(C)O)C1=CCC2C(=CC=C3CC(O)CC(O)C3)CCCC12C (stereo not drawn)
[B] C[C@H](OC(=O)CC[C@@](C)(O)C(F)(F)F)C1=CC[C@H]2/C(=C/C=C3C[C@@H](O)C[C@H](O)C3)CCC[C@]12C
Q: // which entry reports the smaller Metabolic Rate, A or B ? To answer, give the label that identifies your chosen option.
A: A

[P] CC(OC(=O)CCC(C)(O)C(F)(F)F)C1CCC2C(=CC=C3CC(O)CC(O)C3)CCCC21C (stereo not drawn) [Compound of Example 73]
[Q] CC1[C@H](O)CC(=C/C=C2\CCC[C@]3(C)[C@@H]([C@H](C)OC(=O)CCCC(C)(C)O)CC[C@@H]23)C[C@H]1O (stereo partly drawn)
[R] C=C1C(O)CC(=CC=C2CCCC3(C)C(C(C)OC(=O)CCC(C)(O)C(F)(F)F)=CCC23)CC1O (stereo not drawn)
[S] C=C1C(=CC=C2CCCC3(C)C2CCC3C(C)OC(=O)CCC(C)(O)C(F)(F)F)CC(O)CC1O (single isomer, unassigned)
Q: Order the items by recorded Metabolic Rate; the first position goes to the largest value. // ordering of labels required in reply
A: R, P, S, Q
(R: 102 pmol/min/mg, P: 63 pmol/min/mg, S: 43 pmol/min/mg, Q: 29 pmol/min/mg)

[1] CC(OC(=O)CCC(C)(C)O)C1CCC2C(=CC=C3CC(O)C(C)C(O)C3)CCCC21C (stereo not drawn)
[2] CC(OC(=O)CCC(C)(O)C(F)(F)F)C1CCC2C(=CC=C3CC(O)C(C)C(O)C3)CCCC21C (stereo not drawn)
[3] C=C1C(=CC=C2CCCC3(C)C2CCC3C(C)OC(=O)CCCC(C)(C)O)CC(O)CC1O (stereo not drawn)
[4] CCC(O)(CC)CCC(=O)O[C@@H](C)[C@H]1CC[C@H]2/C(=C/C=C3C[C@@H](O)C(C)[C@H](O)C3)CCC[C@]12C (stereo partly drawn)
Q: Write the entries in order, lowest recorded Metabolic Rate first. // ordering of labels required in reply
A: 3, 1, 2, 4
